Listed below: protein stability index values for each entry.
B1: SLC19A2 (parent)
chain: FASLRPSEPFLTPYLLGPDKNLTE

Variants of: B1
Test: protein stability index of a GFP-peptide fusion (GPS, HEK-293T) (PSI 1-6); higher = more stable;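 also: lentivirally expressed fusions sorted by FACS into six bins by GFP to DsRed ratio, PSI derived from sequencing read proportions per bin multiplied by bin number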
Settings: c terminus: a fixed tail appended
Could you keep your reply to the number by itself?

Request: Entry L11G : reported protein stability index = ?
Response: 2.06

Request: Entry L11V : reported protein stability index = ?
Response: 1.61

Request: Entry K20H : reported protein stability index = ?
Response: 1.97

Request: Entry L15H : reported protein stability index = ?
Response: 1.55

Request: Entry P13Y : reported protein stability index = ?
Response: 1.58

Request: Entry P9S : reported protein stability index = ?
Response: 1.61

Request: Entry R5F : reported protein stability index = ?
Response: 2.32

Request: Entry T23D : reported protein stability index = ?
Response: 1.97

Request: Entry Y14V : reported protein stability index = ?
Response: 2.22

Request: Entry E24H : reported protein stability index = ?
Response: 1.93

Request: Entry L22D : reported protein stability index = ?
Response: 2.65

Request: Entry L11W : reported protein stability index = ?
Response: 3.29

Request: Entry L4K : reported protein stability index = ?
Response: 1.48

Request: Entry P9D : reported protein stability index = ?
Response: 2.85
